# Tested on: 317291-083-R-J1-PDC complex spheroid growth;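 also: compound exposure lasted seven days after spheroids formed for three days; 100% = DMSO vehicle control wells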
# test: Anticancer human tumor 317291-083-R-J1-PDC patient-derived soft tissue sarcoma cell line growth inhibition [Asc]; active = viability on the fitted dose curve at most 10% of control; inactive = the rest
# assay conditions: second compound 0.316 µM; first compound 0.3 µM
API: response.call in class 1 for active, class 0 for inactive

Solved entries:
{"compound": "NC(=O)C(=Cn1cnc(-c2cc(C(F)(F)F)cc(C(F)(F)F)c2)n1)c1cncnc1 + CNC(C)C(=O)NC1CN(S(=O)(=O)c2cccc(S(=O)(=O)N3CCC4CCC(C(=O)NC(c5ccccc5)c5ccccc5)N4C(=O)C(NC(=O)C(C)NC)C3)c2)CCC2CCC(C(=O)NC(c3ccccc3)c3ccccc3)N2C1=O", "cat": "class 1"}
{"compound": "Cc1nc(N2CCC3(CC2)COC(C)C3N)c(CO)nc1Sc1ccnc(N)c1Cl (stereo unspecified) + Cc1c(S(C)(=O)=O)c(-c2cc(F)cc(N3CCN(c4ccc(NS(=O)(=O)c5ccc(NC(CCN6CCC(C(=O)OCCCP(=O)(O)O)CC6)CSc6ccccc6)c(S(=O)(=O)C(F)(F)F)c5)cc4)CC3)c2)c(-c2ccc(Cl)cc2)n1C(C)C", "cat": "class 0"}
{"compound": "CCN1C(C(=O)NC23CCC(C(=O)O)(CC2)CC3)C(c2cccc(Cl)c2F)C2(C(=O)Nc3cc(Cl)ccc32)C12CCCCC2 (stereo unspecified) + Cc1c(S(C)(=O)=O)c(-c2cc(F)cc(N3CCN(c4ccc(NS(=O)(=O)c5ccc(NC(CCN6CCC(C(=O)OCCCP(=O)(O)O)CC6)CSc6ccccc6)c(S(=O)(=O)C(F)(F)F)c5)cc4)CC3)c2)c(-c2ccc(Cl)cc2)n1C(C)C", "cat": "class 0"}
{"compound": "Cc1nc(N2CCC3(CC2)COC(C)C3N)c(CO)nc1Sc1ccnc(N)c1Cl (stereo unspecified) + CNC(C)C(=O)NC1CN(S(=O)(=O)c2cccc(S(=O)(=O)N3CCC4CCC(C(=O)NC(c5ccccc5)c5ccccc5)N4C(=O)C(NC(=O)C(C)NC)C3)c2)CCC2CCC(C(=O)NC(c3ccccc3)c3ccccc3)N2C1=O", "cat": "class 0"}
{"compound": "NC(=O)C(=Cn1cnc(-c2cc(C(F)(F)F)cc(C(F)(F)F)c2)n1)c1cncnc1 + Cc1c(S(C)(=O)=O)c(-c2cc(F)cc(N3CCN(c4ccc(NS(=O)(=O)c5ccc(NC(CCN6CCC(C(=O)OCCCP(=O)(O)O)CC6)CSc6ccccc6)c(S(=O)(=O)C(F)(F)F)c5)cc4)CC3)c2)c(-c2ccc(Cl)cc2)n1C(C)C", "cat": "class 1"}

INPUT: How was CCN1C(C(=O)NC23CCC(C(=O)O)(CC2)CC3)C(c2cccc(Cl)c2F)C2(C(=O)Nc3cc(Cl)ccc32)C12CCCCC2 (stereo unspecified) + CNC(C)C(=O)NC1CN(S(=O)(=O)c2cccc(S(=O)(=O)N3CCC4CCC(C(=O)NC(c5ccccc5)c5ccccc5)N4C(=O)C(NC(=O)C(C)NC)C3)c2)CCC2CCC(C(=O)NC(c3ccccc3)c3ccccc3)N2C1=O classified in this test?
OUTPUT: class 0
